Biological target: cAMP-dependent protein kinase type I-alpha regulatory subunit (Homo sapiens)
Test: Binding affinity to recombinant human full length PKA-R1alpha expressed in Escherichia coli BL21 DE3-RIL cells assessed as reduction in interaction with AKAP at 20 nM by fluorescence polarization analysis
Activity calls are given as the source filed them. No cut-off for these calls is given here.
reported_metric: Activity

>>> test_value("CC(C)C[C@@H]1NC(=O)[C@H](C)NC(=O)[C@@](C)(NC(=O)[C@H](CO)NC(=O)[C@@H](NC(=O)[C@H](CC(C)C)NC(=O)[C@H](Cc2ccccc2)NC(=O)[C@H](CCCCN)NC(=O)[C@H](C)NC(=O)[C@H](CC(C)C)NC(=O)[C@H](CCCCN)NC(=O)[C@H](CCCCN)NC(=O)COCCOCCOCCN)C(C)C)CCC/C=C/CCC[C@@](C)(C(=O)N[C@@H](C)C(=O)N[C@@H](CC(C)C)C(=O)N[C@@H](CCCCN)C(=O)O)NC(=O)[C@H](C)NC1=O")
"inactive"
>>> test_value("CC(C)C[C@H](NC(=O)[C@H](C)NC(=O)[C@]1(C)CCC/C=C/CCC[C@](C)(NC(=O)[C@H](CO)NC(=O)[C@@H](NC(=O)[C@H](CC(C)C)NC(=O)[C@H](Cc2ccccc2)NC(=O)[C@H](CCCCN)NC(=O)[C@H](C)NC(=O)[C@H](C)NC(=O)[C@H](CCCCN)NC(=O)[C@H](CCCCN)NC(=O)COCCOCCOCCN)C(C)C)C(=O)N[C@@H](C)C(=O)N[C@@H](CC(C)C)C(=O)N[C@@H](CCCCN)C(=O)N1)C(=O)N[C@@H](CCCCN)C(=O)O")
"inactive"
>>> test_value("CC(C)C[C@@H]1NC(=O)[C@H](C)NC(=O)[C@@](C)(NC(=O)[C@H](CO)NC(=O)[C@@H](NC(=O)[C@H](CC(C)C)NC(=O)[C@H](Cc2ccccc2)NC(=O)[C@H](CCCCN)NC(=O)[C@H](C)NC(=O)[C@H](CC(C)C)NC(=O)[C@H](CCCCN)NC(=O)[C@H](CCCCN)NC(=O)COCCOCCOCCN)C(C)C)CCC/C=C/CCC[C@@](C)(C(=O)N[C@@H](C)C(=O)N[C@@H](C)C(=O)N[C@@H](CCCCN)C(=O)O)NC(=O)[C@H](CCCCN)NC1=O")
"inactive"
>>> test_value("CC(C)C[C@H](NC(=O)[C@H](C)NC(=O)[C@]1(C)CCC/C=C/CCC[C@](C)(NC(=O)[C@H](CO)NC(=O)[C@@H](NC(=O)[C@H](CC(C)C)NC(=O)[C@H](Cc2ccccc2)NC(=O)[C@H](CCCCN)NC(=O)[C@H](C)NC(=O)[C@H](CC(C)C)NC(=O)[C@H](CCCCN)NC(=O)[C@H](CCCCN)NC(=O)COCCOCCOCCN)C(C)C)C(=O)N[C@@H](C)C(=O)N[C@@H](CC(C)C)C(=O)N[C@@H](CCCCN)C(=O)N1)C(=O)N[C@@H](CCCCN)C(=O)O")
"inactive"
